Each entry below carries its reported EC50.
# tested.on: human muscarinic M1 receptor (Homo sapiens, UniProt P11229)
# Sequence (P11229 1-460): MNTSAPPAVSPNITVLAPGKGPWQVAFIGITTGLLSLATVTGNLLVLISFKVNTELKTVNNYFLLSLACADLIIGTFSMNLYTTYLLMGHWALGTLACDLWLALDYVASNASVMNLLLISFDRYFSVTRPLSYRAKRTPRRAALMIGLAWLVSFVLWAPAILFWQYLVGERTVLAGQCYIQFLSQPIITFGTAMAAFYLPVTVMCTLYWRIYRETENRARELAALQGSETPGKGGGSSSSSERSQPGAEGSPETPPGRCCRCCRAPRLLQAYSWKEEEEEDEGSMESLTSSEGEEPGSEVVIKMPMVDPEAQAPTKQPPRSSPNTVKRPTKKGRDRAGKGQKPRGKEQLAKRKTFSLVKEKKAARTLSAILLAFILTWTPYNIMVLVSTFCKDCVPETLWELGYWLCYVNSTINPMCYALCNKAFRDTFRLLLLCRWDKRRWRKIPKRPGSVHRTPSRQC
# run.description: Alphascreen Surefire phospho-ERK1/2 functional assay, M1
# Assay type: cell-based
# details: CHO cells stably expressing human M1; phospho-ERK1/2; * = variable results; read-out: pEC50 M1 (converted)
Quick note: give the figure in nM, leave out the unit.

// worked examples, EC50 included
// fetch human muscarinic M1 receptor (Homo sapiens, UniProt P11229) EC50 for COC(=O)N1CCC2(CC(N3CCC([C@@H]4CCCN4C(=O)NCC(F)(F)F)CC3)C2)C1 (single isomer, unassigned) [2-40 Isomer 2] 794

Also, CCOC(=O)N1CCC2(CC(N3CCC(N4C(=O)OC[C@H]4CC)CC3)C2)C1 (single isomer, unassigned) [2-119 Isomer 2] please. 2510

Now the molecule CCOC(=O)N1CCC2(CC(N3CCC([C@@H]4CCCN4C(=O)NC(C)C)CC3)C2)C1 (single isomer, unassigned) [2-25 Isomer 2] 631

New cases:
Request: EC50, test system human muscarinic M1 receptor (Homo sapiens, UniProt P11229), entry CCOC(=O)N1CCC2(CC(N3CCC(N4CCCCCC4C(=O)OC)CC3)C2)C1 (single isomer, unassigned) [5-2 Isomer 2] 1000

###

# tested.on: human muscarinic M4 receptor (Homo sapiens, UniProt P08173)
# Construct: expressed in transfected cells
# Sequence (P08173 1-479): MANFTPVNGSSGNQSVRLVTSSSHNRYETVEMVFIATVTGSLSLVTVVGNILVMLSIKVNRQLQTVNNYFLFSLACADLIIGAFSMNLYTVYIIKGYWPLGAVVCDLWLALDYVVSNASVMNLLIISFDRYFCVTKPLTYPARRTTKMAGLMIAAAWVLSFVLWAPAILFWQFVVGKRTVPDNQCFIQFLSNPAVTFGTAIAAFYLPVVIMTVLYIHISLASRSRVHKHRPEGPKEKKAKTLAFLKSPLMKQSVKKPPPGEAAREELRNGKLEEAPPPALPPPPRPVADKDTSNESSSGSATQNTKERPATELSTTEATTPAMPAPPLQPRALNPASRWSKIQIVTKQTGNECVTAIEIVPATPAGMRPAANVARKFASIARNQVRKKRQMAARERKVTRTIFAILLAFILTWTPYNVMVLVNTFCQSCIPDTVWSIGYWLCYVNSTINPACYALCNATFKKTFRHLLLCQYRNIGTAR
# run.description: Alphascreen Surefire phospho-ERK1/2 functional assay, M4
# Type: cell-based
# details: CHO, read-out: % Emax cf. ACh, M4, CHO cells stably expressing human M4; relative to ACh
measure: Emax (%)
Express it in %; write the number only.

Answered examples (5):
Request the reported Emax associated with CCOC(=O)N1CCC2(CC(N3CCC(C4CCCN4C=O)CC3)C2)C1 (single isomer, unassigned) [2-2 Isomer 2] 79

Same question for CCOC(=O)N1CCC2(CC(N3CCC(N4C(=O)OC[C@H]4C)CC3)C2)C1 (single isomer, unassigned) [2-118 Isomer 2] please. 84

Can you check CCOC(=O)N1CCC2(CC(N3CCC([C@@H]4CCCN4CCOC)CC3)C2)C1 (single isomer, unassigned) [2-71 Isomer 2] next? 56

Then CCOC(=O)N1CCC2(CC(N3CCC([C@@H]4CCCN4C(=O)CCNC(=O)OCc4ccccc4)CC3)C2)C1 (single isomer, unassigned) [2-65 Isomer 2] ? 107

// repeat for [2H]C([2H])([2H])COC(=O)N1CCC2(CC(N3CCC(c4ccnn4C)CC3)C2)C1 (single isomer, unassigned) [1-72 Isomer 2] and report 69

More entries:
Find the recorded Emax belonging to CCOC(=O)N1CCC2(CC(N3CCC(N4C(=O)CC[C@@H]4C)CC3)C2)C1 (single isomer, unassigned) [2-115 Isomer 2] and report it. 78

Same read-out for CCOC(=O)N1CCC2(CC(N3CCC(c4ncc(Cl)n4C)CC3)C2)C1 (single isomer, unassigned) [1-14 Isomer 2] ? 99

Continue with CCOC(=O)N1CCC2(CC(N3CCC(c4cnc(OC)c(C)c4)CC3)C2)C1 (single isomer, unassigned) [3-7 Isomer 2] 39

Also, CCOC(=O)N1CCC2(CC(N3CCC(N4C(=O)CC[C@@H]4CC)CC3)C2)C1 (single isomer, unassigned) [2-116 Isomer 2] please. 103

And the next one, CCOC(=O)N1CCC2(CC(N3CCC([C@@H]4CCCN4C(=O)CCN)CC3)C2)C1 (single isomer, unassigned) [2-66 Isomer 2] ? 115

###

# tested.on: human muscarinic M4 receptor (Homo sapiens, UniProt P08173)
# Construct: expressed in transfected cells
# Sequence (P08173 1-479): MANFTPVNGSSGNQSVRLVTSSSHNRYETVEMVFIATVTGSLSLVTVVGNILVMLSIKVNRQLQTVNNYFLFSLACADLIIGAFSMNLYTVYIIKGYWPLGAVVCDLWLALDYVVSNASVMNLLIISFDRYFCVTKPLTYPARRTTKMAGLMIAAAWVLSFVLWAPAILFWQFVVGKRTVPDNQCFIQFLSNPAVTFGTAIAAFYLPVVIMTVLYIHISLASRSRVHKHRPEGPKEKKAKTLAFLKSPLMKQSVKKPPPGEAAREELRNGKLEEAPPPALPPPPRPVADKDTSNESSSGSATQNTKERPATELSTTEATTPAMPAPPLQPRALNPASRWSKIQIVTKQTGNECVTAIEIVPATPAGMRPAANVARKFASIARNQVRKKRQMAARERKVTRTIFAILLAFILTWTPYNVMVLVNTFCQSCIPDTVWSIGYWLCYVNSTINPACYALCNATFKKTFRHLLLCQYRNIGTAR
# run.description: Alphascreen Surefire phospho-ERK1/2 functional assay, M4
# Format: cell-based
# details: CHO, read-out: % Emax cf. ACh, M4, CHO cells stably expressing human M4; relative to ACh
measure: Emax
Record the result as a number with its unit.

Solved cases below.
Item: CCOC(=O)N1CCC2(CC(N3CCC([C@@H]4CCCN4Cc4ccccc4)CC3)C2)C1 (single isomer, unassigned) [2-74 Isomer 2] Test system: human muscarinic M4 receptor (Homo sapiens, UniProt P08173) Read-out: Emax Value: ? 54%

Same for CCOC(=O)N1CCC2(CC(N3CCC(N4CCC(F)(F)CC4)CC3)C2)C1 (single isomer, unassigned) [4-14 Isomer 2] 48%

Let us now turn to CCOC(=O)N1CCC2(CC(N3CCC([C@@H]4CCCN4C(=O)N4CCC4)CC3)C2)C1 (single isomer, unassigned) [2-27 Isomer 2] 73%

Would you mind doing CCOC(=O)N1CCC2(CC(N3CCC(N4CCC(F)(F)C4)CC3)C2)C1 (single isomer, unassigned) [2-100 Isomer 2] as well? 55%

# repeat for CCOC(=O)N1CCC2(CC(N3CCC(c4nccs4)CC3)C2)C1 (single isomer, unassigned) [1-25 Isomer 2] 128%

Try this compound next: CCOC(=O)N1CCC2(CC(N3CCC(C4CCCN4C(=O)OCC)CC3)C2)C1 (single isomer, unassigned) [2-14 Isomer 2] 91%

Consider next the compound CCOC(=O)N1CCC2(CC(N3CCC(C4CC(C)CNC4=O)CC3)C2)C1 (single isomer, unassigned) [4-4 Isomer 2] in the same way. 73%

Same again, this time with CCOC(=O)N1CCC2(CC(N3CCC([C@@H]4C[C@H](F)CN4C(=O)CC)CC3)C2)C1 (single isomer, unassigned) [2-59 Isomer 2] 67%

# iterate: CCOC(=O)N1CCC2(CC(N3CCC(c4ncc[nH]4)CC3)C2)C1 (single isomer, unassigned) [1-1 Isomer 2] 112%

Another: CCOC(=O)N1CCC2(CC(N3CCC(N4CCCC[C@@H]4C(=O)OC)CC3)C2)C1 (single isomer, unassigned) [4-15 Isomer 2] 113%

New cases:
Missing value: Emax, human muscarinic M4 receptor (Homo sapiens, UniProt P08173), entry CCOC(=O)N1CCC2(CC(N3CCC(N4CCCC4c4ccon4)CC3)C2)C1 (single isomer, unassigned) [2-127 Isomer 2] . Fill in? 72%

Entry to check: CCOC(=O)N1CCC2(CC(N3CCC(N4CC(F)(F)C[C@@H]4C(=O)N(C)C)CC3)C2)C1 (single isomer, unassigned) [2-89 Isomer 2] 102%

// repeat for CCOC(=O)N1CCC2(CC(N3CCC([C@@H]4CCCN4C(=O)N(C)CC(F)(F)F)CC3)C2)C1 (single isomer, unassigned) [2-55 Isomer 1] and report 67%

Follow-up item: COC(=O)N1CCC2(CC(N3CCC(n4ccc(C)n4)CC3)C2)C1 (single isomer, unassigned) [1-45 Isomer 2] 80%

Queued: COC(=O)N1CCC2(CC(N3CCC(c4nccn4C)CC3)C2)C1 (single isomer, unassigned) [1-6 Isomer 2] 71%
